Origin of values: ChEMBL document CHEMBL1221320

Assay: Distribution coefficient, log D of the compound
Type: physicochemical
Details: octanol/water; read-out: logD
Assign logD to each entry below.
Give bare numbers.

[
  {
    "CHEMICAL_STRUCTURE": "CCC(=O)NCCNCCNC(=O)CCC(=O)NC(=N)NCCC[C@@H](NC(=O)C(c1ccccc1)c1ccccc1)C(=O)NCc1ccc(O)cc1",
    "REPORTED_RESULT": -0.6
  },
  {
    "CHEMICAL_STRUCTURE": "N=C(N)NCCNC(=O)CCC(=O)NC(=N)NCCC[C@@H](NC(=O)C(c1ccccc1)c1ccccc1)C(=O)NCc1ccc(O)cc1",
    "REPORTED_RESULT": -1.4
  },
  {
    "CHEMICAL_STRUCTURE": "N=C(NCCC[C@@H](NC(=O)C(c1ccccc1)c1ccccc1)C(=O)NCc1ccc(O)cc1)NC(=O)CCC(=O)NCCNCCN",
    "REPORTED_RESULT": -1.8
  },
  {
    "CHEMICAL_STRUCTURE": "N=C(N)NCCC[C@@H](NC(=O)C(c1ccccc1)c1ccccc1)C(=O)NCc1ccc(O)cc1",
    "REPORTED_RESULT": 0.7
  }
]

Below are some compounds; for each one, tell me its logD.
1. N=C(NCCC[C@@H](NC(=O)C(c1ccccc1)c1ccccc1)C(=O)NCc1ccc(O)cc1)NC(=O)CCC(=O)OC[C@H]1O[C@@H](O)[C@H](O)[C@@H](O)[C@H]1O
2. NC(=NCCC[C@@H](NC(=O)C(c1ccccc1)c1ccccc1)C(=O)NCc1ccc(O)cc1)NC(=O)CCCCCCC(=O)NCCC(=O)O
3. N=C(NCCC[C@@H](NC(=O)C(c1ccccc1)c1ccccc1)C(=O)NCc1ccc(O)cc1)NC(=O)CCCCCCC(=O)NCCC(=O)OCc1ccccc1

[0.9, 0.7, 4.6]

###

Experiment: Distribution coefficient, log D of the compound
Assay type: physicochemical
Conditions: octanol/water; read-out: logD
EXPERIMENTAL_ENDPOINT: logD

[
  {
    "CHEMICAL_STRUCTURE": "COC(=O)CCCCCCC(=O)NC(N)=NCCC[C@@H](NC(=O)C(c1ccccc1)c1ccccc1)C(=O)NCc1ccc(O)cc1",
    "EXPERIMENTAL_ENDPOINT": "logD",
    "REPORTED_RESULT": 3.9
  },
  {
    "CHEMICAL_STRUCTURE": "N=C(NCCC[C@@H](NC(=O)C(c1ccccc1)c1ccccc1)C(=O)NCc1ccc(O)cc1)NC(=O)CCC(=O)NCCN",
    "EXPERIMENTAL_ENDPOINT": "logD",
    "REPORTED_RESULT": -1.3
  }
]

Kindly consider the entry below.
Give the measured logD for NCc1cn(CCCC(=O)NC(N)=NCCC[C@@H](NC(=O)C(c2ccccc2)c2ccccc2)C(=O)NCc2ccc(O)cc2)nn1
1.7

###

Assay: Distribution coefficient, log D of the compound
Assay type: physicochemical
Settings: octanol/water; read-out: logD
Assign logD to each entry below.
Answers are plain numbers.

Here is how some molecules turned out for logD.
[
  {
    "CHEMICAL_STRUCTURE": "N=C(NCCC[C@@H](NC(=O)C(c1ccccc1)c1ccccc1)C(=O)NCc1ccc(O)cc1)NC(=O)CCC(=O)NCCNC(=O)c1ccc(F)cc1",
    "REPORTED_RESULT": 3.5
  },
  {
    "CHEMICAL_STRUCTURE": "N=C(NCCC[C@@H](NC(=O)C(c1ccccc1)c1ccccc1)C(=O)NCc1ccc(O)cc1)NC(=O)CCCCCCC(=O)NCCN",
    "REPORTED_RESULT": -0.3
  },
  {
    "CHEMICAL_STRUCTURE": "CC(=O)OC[C@@H](OC(C)=O)[C@@H](OC(C)=O)[C@H](OC(C)=O)[C@@H](OC(C)=O)C(=O)NC(N)=NCCC[C@@H](NC(=O)C(c1ccccc1)c1ccccc1)C(=O)NCc1ccc(O)cc1",
    "REPORTED_RESULT": 3.5
  },
  {
    "CHEMICAL_STRUCTURE": "N=C(NCCC[C@@H](NC(=O)C(c1ccccc1)c1ccccc1)C(=O)NCc1ccc(O)cc1)NC(=O)CCCc1ccc2ccc3cccc4ccc1c2c34",
    "REPORTED_RESULT": 7.6
  },
  {
    "CHEMICAL_STRUCTURE": "COC(=O)CCNC(=O)CCCCCCC(=O)NC(N)=NCCC[C@@H](NC(=O)C(c1ccccc1)c1ccccc1)C(=O)NCc1ccc(O)cc1",
    "REPORTED_RESULT": 2.9
  }
]

Give the measured logD for N=C(N)NCCCCCC(=O)NC(=N)NCCC[C@@H](NC(=O)C(c1ccccc1)c1ccccc1)C(=O)NCc1ccc(O)cc1
-0.3
